Cited source for all entries: ChEMBL document CHEMBL1136735

# TARGET: Melatonin receptor type 1B (Homo sapiens)
# Sequence (P49286 whole entry): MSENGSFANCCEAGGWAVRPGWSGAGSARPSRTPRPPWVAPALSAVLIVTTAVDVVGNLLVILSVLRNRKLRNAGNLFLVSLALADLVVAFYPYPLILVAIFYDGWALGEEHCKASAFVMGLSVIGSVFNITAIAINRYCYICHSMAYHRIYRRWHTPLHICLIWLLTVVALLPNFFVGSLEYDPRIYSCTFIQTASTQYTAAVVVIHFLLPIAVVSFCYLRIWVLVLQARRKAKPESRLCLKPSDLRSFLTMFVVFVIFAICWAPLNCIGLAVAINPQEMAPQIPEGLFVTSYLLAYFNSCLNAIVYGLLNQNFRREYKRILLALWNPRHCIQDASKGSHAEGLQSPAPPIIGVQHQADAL
# ASSAY: Binding affinity for human Melatonin receptor type 1B stably transfected in human embryonic kidney cells (HEK 293) using 2-[125I]iodomelatonin as radioligand
Ki overview
API: value field is a number in nM; no unit string.

                    structure_smiles_string  uom  endpoint_value
0  CC(=O)NCCc1cccc2ccc(OCCCOc3ccc4cccc(CCNC(C)=O)c4c3)cc12   nM             112
1  CC(=O)NCCc1cccc2ccc(OCCCCCCCCOc3ccc4cccc(CCNC(C)=O)c4c3)cc12   nM            0.18
2  CC(=O)NCCc1cccc2ccc(OCCCCCCOc3ccc4cccc(CCNC(C)=O)c4c3)cc12   nM            2.33
3  CC(=O)NCCc1cccc2ccc(OCCCCOc3ccc4cccc(CCNC(C)=O)c4c3)cc12   nM            72.7

Requested read-out Ki, target or system Melatonin receptor type 1B (Homo sapiens), entry `CC(=O)NCCc1cccc2ccc(OCCOc3ccc4cccc(CCNC(C)=O)c4c3)cc12` 182

Same lookup for `CC(=O)NCCc1cccc2ccc(OCCCCCCCCCCOc3ccc4cccc(CCNC(C)=O)c4c3)cc12` , please. 0.04

Do the same for `CC(=O)NCCc1cccc2ccc(OCCCCCOc3ccc4cccc(CCNC(C)=O)c4c3)cc12` please 1.74
